Reference for the values: the supplement of paper PMC10567573

Listed here: items and their measured protein stability index.
B1: FBXO3 (parent)
chain: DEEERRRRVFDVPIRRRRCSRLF

- Variants of: B1
- assay-details: protein stability index of a GFP-peptide fusion (GPS, HEK-293T) (PSI 1-6); higher = more stable;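 also: lentivirally expressed fusions sorted by FACS into six bins by GFP to DsRed ratio, PSI derived from sequencing read proportions per bin multiplied by bin number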
- setup-conditions: c terminus: native
measurement-kind: protein stability index

>>> df
    mutation_list  result
 0           V12W    2.66
 1            E3G    2.19
 2           R21G    2.36
 3           P13T    1.44
 4            R7Q    3.69
 5            R6S     3.8
 6            E3N    2.79
 7            E3A    1.88
 8            R7N     3.8
 9           C19K    4.77
10           F10T    4.33
11           I14K    3.78
12           L22T    2.46
13           R15I    2.31
14           R17Q     2.5
15            E3M    2.53
16           P13D    2.15
17           R17P    1.96
18            E2K    1.36
19            R8D    3.58
20           V12K    3.25
21           R21D    3.91
22           R16N    2.21
23            R8I    2.88
24           F23D    2.71
25           R18K    2.83
26           R17G    1.98
27           L22E    4.92
28           R16F    1.93
29           L22S    2.17
30           D11T    2.84
31           R17T    2.82
32            R5W    2.23
33           R18C    2.29
34           I14N    2.25
35            E2S    2.21
36            R6D    4.26
37            R8Y    1.95
38           C19N    4.56
39            R7V    3.01
40            R8C    2.33
41           F23R    3.91
42           R15K    3.65
43           F23N    2.48
44           I14Y     2.4
45            R6H    3.17
46           F10R    3.85
47           P13M    2.19
48            E4T    2.14
49           R15G    2.74
50            R6C    2.83
51           I14M    2.63
52            R7T    3.67
53           P13N    2.07
54            R5L    3.12
55            R7E    3.88
56            R8P    3.63
57           S20W    2.47
58           F10E    4.16
59            D1T     2.2
60           I14W     2.7
61           F10D    4.51
62            V9N    3.75
63           P13F    3.42
64           F23V    3.28
65           R15A    2.88
66            R6Y    1.78
67            R7P    3.71
68            R6W    1.56
69           V12E    2.81
70           V12L    2.61
71           R21E    3.46
72            E3Y    1.84
73           R18S    2.26
74           C19R    4.59
75            V9S    3.47
76           I14S    2.49
77           D11Q     2.4
78            R7L    3.19
79           R15V    2.78
80            D1W     1.8
81           D11L    2.33
82           R17M    2.27
83           R21F    3.04
84           D11A    2.73
85           R17D    2.17
86           R21M    2.87
87            E2R    2.33
88           L22K    4.67
89            R6A    3.51
90           R21N    3.99
